# experimentalSystem: hsMTHFD1 DC301 (Homo sapiens, UniProt P11586)
# Construct: We therefore expressed and purified hsMTHFD2 and hsMTHFD1_DC to test them biochemically; His-tag (vector pHis-TEV); made in house; host or cells: E. coli BL21 (DE3)
# Sequence (P11586 2-291 limits assumed): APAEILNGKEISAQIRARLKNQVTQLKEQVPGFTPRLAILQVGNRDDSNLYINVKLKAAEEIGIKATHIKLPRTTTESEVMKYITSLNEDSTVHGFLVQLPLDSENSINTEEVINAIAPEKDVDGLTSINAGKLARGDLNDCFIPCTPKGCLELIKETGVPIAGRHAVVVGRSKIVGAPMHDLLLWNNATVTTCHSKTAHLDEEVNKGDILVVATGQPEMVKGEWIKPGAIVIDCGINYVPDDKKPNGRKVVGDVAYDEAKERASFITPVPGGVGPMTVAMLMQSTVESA
# assayRemarks: FoID dehydrogenase (DH) enzyme assay
# Type: biochemical
# testSettings: vs cofactor NADP+, read-out: Ki (NADP^+), carolacton inhibition on DH activity
# Description: (6R,S)-5,10-Methylene-5,6,7,8-tetrahydrofolic acid ((6R,S)-5,10-CH2-THF), calcium salt and (6R,S)-5,10-Methenyl-5,6,7,8-tetrahydrofolic acid ((6R,S)-5,10-CH=THF) chloride were purchased from Schircks Laboratories (Bauma, Switzerland) and were used as substrates for FoID dehydrogenase and cyclohydrolase enzyme assays, respectively. […] Because FoID is a bifunctional enzyme, dehydrogenase and cyclohydrolase activities were determined for FoID enzyme kinetics, respectively. […]
resultType: Ki (nM)
Answers are plain numbers, in nM.

input: Identify Ki associated with the compound CO[C@H](CC(=O)O)[C@@H](C)C(=O)[C@H](C)/C=C(\C)[C@H]1OC(=O)[C@H](O)[C@H](O)/C=C/[C@H](C)CCC[C@@H]1C
output: 58.7

* * *

# Tested on: SW626 cells
# assayRemarks: CellTiter-Glo luminescent cell viability assay
# Assay type: cell-based, human
# testSettings: Homo sapiens, SW626, 72 h, synthetic C, DMSO, 72 h, read-out: IC50 inhibition of cancer cell proliferation
resultType: IC50 (nM)
Numbers only, in nM.

input: Identify IC50 associated with the compound CO[C@H](CC(=O)O)[C@@H](C)C(=O)[C@H](C)/C=C(\C)[C@H]1OC(=O)[C@H](O)[C@H](O)/C=C/[C@H](C)CCC[C@@H]1C
output: 908

* * *

# experimentalSystem: spFoID (Streptococcus pneumoniae serotype 4, UniProt Q97RI9)
# Sequence (Q97RI9 whole entry): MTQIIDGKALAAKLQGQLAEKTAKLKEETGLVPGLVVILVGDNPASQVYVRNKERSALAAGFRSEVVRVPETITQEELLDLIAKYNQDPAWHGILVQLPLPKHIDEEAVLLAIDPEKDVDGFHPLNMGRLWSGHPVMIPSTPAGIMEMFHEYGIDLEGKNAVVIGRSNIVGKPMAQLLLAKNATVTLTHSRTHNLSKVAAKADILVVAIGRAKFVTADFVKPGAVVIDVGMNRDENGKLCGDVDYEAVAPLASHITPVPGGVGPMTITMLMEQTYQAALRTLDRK
resultType: Kd (µM)
One number for each entry, in µM.

input: Identify Kd associated with the molecule CO[C@H](CC(=O)O)[C@@H](C)C(=O)[C@H](C)/C=C(\C)[C@H]1OC(=O)[C@H](O)[C@H](O)/C=C/[C@H](C)CCC[C@@H]1C [Carolacton, carolacton]
output: 0.027

* * *

# experimentalSystem: ecFoID Q98H (Escherichia coli, UniProt P24186, Q98H)
# assayRemarks: Surface plasmon resonance assay
resultType: pKd
Numbers only, as −log10 of the molar value.

input: # return pKd of CO[C@H](CC(=O)O)[C@@H](C)C(=O)[C@H](C)/C=C(\C)[C@H]1OC(=O)[C@H](O)[C@H](O)/C=C/[C@H](C)CCC[C@@H]1C (system: ecFoID Q98H (Escherichia coli, UniProt P24186, Q98H))
output: 4.70
